molecular target: EGFRTK (Homo sapiens, UniProt P00533); test: EGFRTK inhibition; type: biochemical; settings: % inhibition at 10 micromolar compound
Sequence (P00533 25-1210): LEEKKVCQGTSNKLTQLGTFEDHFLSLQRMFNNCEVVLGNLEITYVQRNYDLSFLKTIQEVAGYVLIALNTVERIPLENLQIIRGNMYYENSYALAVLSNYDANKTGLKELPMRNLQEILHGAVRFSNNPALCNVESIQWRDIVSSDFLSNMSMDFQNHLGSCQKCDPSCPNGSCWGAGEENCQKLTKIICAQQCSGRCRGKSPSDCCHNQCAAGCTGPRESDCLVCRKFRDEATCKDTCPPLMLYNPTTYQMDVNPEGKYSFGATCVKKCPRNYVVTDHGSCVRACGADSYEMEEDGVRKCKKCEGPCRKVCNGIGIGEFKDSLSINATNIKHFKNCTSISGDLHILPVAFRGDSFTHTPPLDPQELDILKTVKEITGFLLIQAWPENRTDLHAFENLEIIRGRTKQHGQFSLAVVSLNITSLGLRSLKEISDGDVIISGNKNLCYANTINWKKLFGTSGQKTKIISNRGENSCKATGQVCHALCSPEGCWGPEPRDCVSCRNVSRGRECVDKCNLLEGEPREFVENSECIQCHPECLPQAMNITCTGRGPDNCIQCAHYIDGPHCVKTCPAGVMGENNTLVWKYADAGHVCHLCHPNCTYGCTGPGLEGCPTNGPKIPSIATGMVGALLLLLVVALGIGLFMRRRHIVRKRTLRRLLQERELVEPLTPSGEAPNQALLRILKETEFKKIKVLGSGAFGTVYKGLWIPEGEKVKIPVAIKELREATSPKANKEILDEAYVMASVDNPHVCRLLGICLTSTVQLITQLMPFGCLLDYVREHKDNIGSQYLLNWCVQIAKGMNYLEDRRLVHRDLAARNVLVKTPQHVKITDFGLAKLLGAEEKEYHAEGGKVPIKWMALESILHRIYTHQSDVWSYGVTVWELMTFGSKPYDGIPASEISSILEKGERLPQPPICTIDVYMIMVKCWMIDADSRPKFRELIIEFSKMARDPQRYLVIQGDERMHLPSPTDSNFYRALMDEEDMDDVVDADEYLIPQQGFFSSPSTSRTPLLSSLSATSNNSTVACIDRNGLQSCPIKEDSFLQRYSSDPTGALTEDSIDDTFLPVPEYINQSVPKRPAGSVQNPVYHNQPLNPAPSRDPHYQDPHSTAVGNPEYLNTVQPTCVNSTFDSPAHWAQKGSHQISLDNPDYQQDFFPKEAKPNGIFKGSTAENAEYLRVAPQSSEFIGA
recorded-endpoint: EGFRTK @ 10 μm (%)

                            chemical_string  endpoint_value
0  O=C(N[C@@H](c1ccccc1)[C@@H](O)c1ccccc1)c1cc2cc(F)ccc2[nH]1              41
1    O=C(NCc1ccc(Br)cc1)c1cc2cc(F)ccc2[nH]1              30

1: O=C(NCc1ccc(CO)cc1)c1cc2cc(F)ccc2[nH]1
2: O=C(N[C@H](c1ccccc1)[C@H](O)c1ccccc1)c1cc2cc(F)ccc2[nH]1
3: Cc1ccccc1CNC(=O)c1cc2cc(F)ccc2[nH]1
Order the records by EGFRTK @ 10 μm, with each subsequent value no larger than the one before. Reply format: the labels, ordered as requested.
1, 2, 3
(1: 33%, 2: 19%, 3: 12%)

Reference source: patent US7772216B2
